Listing: kon of selected binders
- TARGET OF ASSAY: T1, biotinylated native human ApoC3 (human, UniProt P02656 21-99, biotinylated (site not stated))
- T1 construct: also called biotinylated human ApoC3
- T1 sequence (P02656 21-99): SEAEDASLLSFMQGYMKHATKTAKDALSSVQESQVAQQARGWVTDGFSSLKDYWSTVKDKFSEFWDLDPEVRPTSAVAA
- EXPERIMENT: SPR, IgG1 over biotinylated ApoC3 on SA chip, pH 5.5
Please respond with the number in M⁻¹ s⁻¹ and leave the unit unwritten.

Below: 4 binders and their reported kon.
[[record]]
binder = "mAb18 (antibody, IgG1, V domains shown, Produced as full length IgG1 (kappa) in ExpiCHO-S cells; also called humanized anti-ApoC3 antibody mAb18) VH: QLVESGGGLVQPGGSLRLSCAASGFTFSTYSMRWVRQAPGKGLEWVSSIHTEAGGTAYRDSVKGRFTISRDNAKNTLYLQMNNLRAEDTAVYYCVIAGYSDWGQGTLVTVSS VL: DIVMTQSPLSLPVTPGEPASISCKTSQGLVHSGGKTYFYWFLQKPGQSPQQLIYQVSNRASGVPDRFTGSGSGTDFTLKISRVEAEDAGVYYCAHGTYYPHTFGQGTRLEIK"
unit_annotation = "M⁻¹ s⁻¹"
quantitative_result = "1.79e+06"

[[record]]
binder = "mAb13 (antibody, IgG1, V domains shown, Produced as full length IgG1 (kappa) in ExpiCHO-S cells; CDR graft into the closest human germline frameworks; also called humanized anti-ApoC3 antibody mAb13; variant 13) VH: QLLESGGGLVQPGGSLRLSCAASGFTFSTYSMRWVRQVPGKGLEWVSSIHTEGGGTAYRDSVKGRFTISRDNSKNTLYLQMNSLRAEDTAVYYCVIAGYSDWGQGTLVTVSS VL: DIVMTQSPLSLPVTPGEPASISCKTSQGLVHSDGKTYFYWYLQKPGQSPQLLIYQVSNRASGVPDRFSGSGSGTDFTLKISRVEAEDVGVYYCAHGTYYPHTFGQGTRLEIK"
unit_annotation = "M⁻¹ s⁻¹"
quantitative_result = 479000

[[record]]
binder = "mAb17 (antibody, IgG1, V domains shown, Produced as full length IgG1 (kappa) in ExpiCHO-S cells; also called humanized anti-ApoC3 antibody mAb17) VH: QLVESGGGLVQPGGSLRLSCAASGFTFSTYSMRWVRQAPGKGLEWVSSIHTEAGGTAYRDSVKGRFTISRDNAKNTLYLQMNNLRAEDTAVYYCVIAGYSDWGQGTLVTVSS VL: DIVMTQSPLSLPVTPGEPASISCKTSQGLVHSGGKTYFYWFLQKPGQSPQQLIYQVSNRASGVPDRFTGSGSGTDFTLKISRVEAEDAGVYYCAQGTYYPHTFGQGTRLEIK"
unit_annotation = "M⁻¹ s⁻¹"
quantitative_result = 806000

[[record]]
binder = "mAb12 (antibody, IgG1, V domains shown, Produced as full length IgG1 (kappa) in ExpiCHO-S cells; also called humanized anti-ApoC3 antibody mAb12) VH: QLVESGGGLVQPGGSLRLSCAASGFTFSTYSMRWVRQVPGKGLEWVSSIHTDAGGTAYRDSVKGRFTISRDNAKNTLYLQMNSLRPEDTAIYYCVIAGYSDWGQGTLVTVSS VL: DIVMTQSPLSLSVTPGEPASISCKTSQGLVHSDGKTYFYWFLQKPGQSPQQLIYQVSNRASGVPDRFTGSGSGTDFTLKISRVKAEDVGVYYCAHGTYYPHTFGQGTRLEIK"
unit_annotation = "M⁻¹ s⁻¹"
quantitative_result = 483000


Continue with the next binder.
Memo: mAb8 (antibody, IgG1, V domains shown, Produced as full length IgG1 (kappa) in ExpiCHO-S cells; also called humanized anti-ApoC3 antibody mAb8) VH: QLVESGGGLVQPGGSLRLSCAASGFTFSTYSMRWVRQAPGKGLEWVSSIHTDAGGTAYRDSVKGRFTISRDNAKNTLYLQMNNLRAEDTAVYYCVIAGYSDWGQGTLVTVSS VL: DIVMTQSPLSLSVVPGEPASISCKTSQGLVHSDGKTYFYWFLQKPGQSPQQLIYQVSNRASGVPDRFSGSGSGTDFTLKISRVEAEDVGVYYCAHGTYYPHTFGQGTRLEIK , reported kon: 490000
